- System tested: Wild type EGFR in A431 cells (Homo sapiens, UniProt P00533)
- Sequence (P00533 25-1210): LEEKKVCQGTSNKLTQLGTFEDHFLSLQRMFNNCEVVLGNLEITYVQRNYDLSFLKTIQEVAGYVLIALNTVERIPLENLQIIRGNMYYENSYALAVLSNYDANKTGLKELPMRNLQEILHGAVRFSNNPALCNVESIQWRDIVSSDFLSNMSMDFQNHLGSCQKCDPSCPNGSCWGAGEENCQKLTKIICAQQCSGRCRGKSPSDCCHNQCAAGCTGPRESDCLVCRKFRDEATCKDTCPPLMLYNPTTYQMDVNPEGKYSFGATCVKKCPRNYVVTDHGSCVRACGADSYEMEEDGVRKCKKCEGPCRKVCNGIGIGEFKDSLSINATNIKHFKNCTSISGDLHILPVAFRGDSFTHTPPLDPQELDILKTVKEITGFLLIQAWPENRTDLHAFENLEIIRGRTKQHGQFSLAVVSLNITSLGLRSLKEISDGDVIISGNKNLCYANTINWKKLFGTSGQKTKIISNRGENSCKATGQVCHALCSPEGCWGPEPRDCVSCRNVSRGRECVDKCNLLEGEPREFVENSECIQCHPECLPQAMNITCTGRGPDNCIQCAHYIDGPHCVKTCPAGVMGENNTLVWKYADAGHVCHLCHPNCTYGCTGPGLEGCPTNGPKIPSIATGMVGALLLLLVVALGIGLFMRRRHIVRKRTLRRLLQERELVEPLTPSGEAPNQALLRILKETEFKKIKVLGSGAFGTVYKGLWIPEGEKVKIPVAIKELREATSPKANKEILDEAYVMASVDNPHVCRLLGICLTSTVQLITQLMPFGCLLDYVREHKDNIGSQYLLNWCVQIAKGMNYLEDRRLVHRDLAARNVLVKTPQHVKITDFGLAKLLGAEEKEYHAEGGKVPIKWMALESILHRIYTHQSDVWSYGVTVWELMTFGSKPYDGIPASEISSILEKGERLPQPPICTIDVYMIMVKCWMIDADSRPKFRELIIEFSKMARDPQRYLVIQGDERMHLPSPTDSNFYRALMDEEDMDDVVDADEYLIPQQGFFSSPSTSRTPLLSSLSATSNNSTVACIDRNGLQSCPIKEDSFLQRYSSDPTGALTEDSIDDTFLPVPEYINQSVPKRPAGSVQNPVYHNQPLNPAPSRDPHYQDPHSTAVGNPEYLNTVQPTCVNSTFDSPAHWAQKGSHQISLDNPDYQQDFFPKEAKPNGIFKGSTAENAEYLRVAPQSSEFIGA
- Run parameters: WT (A431) IC50 nM, cellular EGFR autophosphorylation, A431, 2 h treatment then EGF stimulation 10 min
Bucketed by reported IC50, buckets being low-valued: < 60 nM; mid-valued: ≥ 60 nM and < 100 nM; high-valued: ≥ 100 nM

Past entries and their recorded results:
For the record C=CC(=O)Nc1cc(Nc2nccc(-n3nc(N(C)C)c4ccsc43)n2)c(OC)cc1N(C)CCN(C)C , report the class its IC50 corresponds to.
high-valued

Lab log: C=CC(=O)Nc1cc(Nc2nccc(-c3cc(C#N)cc4c3ccn4C)n2)c(OC)cc1N(C)CCN(C)C — assign IC50 category
mid-valued

Consider C=CC(=O)Nc1cc(Nc2nccc(-c3cc(C#N)c4ccn(C)c4c3)n2)c(OC)cc1N(C)CCN(C)C . To which IC50 class does it belong?
high-valued

Which class is correct for the following molecule? C=CC(=O)Nc1cc(Nc2nccc(-n3nc(N(C)C)c4ncccc43)n2)c(OCC(F)F)cc1N(C)CCN(C)C
high-valued

Others:
For this molecule, which bin applies? C=CC(=O)Nc1cc(Nc2nccc(-n3nc(N(C)C)c4ccccc43)n2)c(OC(F)F)cc1N(C)CCN(C)C
low-valued

Could you place C=CC(=O)Nc1cc(Nc2nccc(-c3cc(C#N)cc4c3cnn4C)n2)c(OC)cc1N(C)CCN(C)C in its proper category? Many thanks.
high-valued

Bin? C=CC(=O)Nc1cc(Nc2nccc(-n3nc(NCC)c4ncccc43)n2)c(OCC(F)F)cc1N(C)CCN(C)C
low-valued

Given C=CC(=O)Nc1cc(Nc2nccc(-c3ccc4c(c3)c(C)cn4C)n2)c(OC)cc1N(C)CCN(C)C , name the class its IC50 places it in.
mid-valued

Pick a category. Item: C=CC(=O)Nc1cc(Nc2nccc(-n3nc(N(C)C)c4cc(Cl)sc43)n2)c(OC)cc1N(C)CCN(C)C
mid-valued

Where would C=CC(=O)Nc1cc(Nc2nccc(-n3nc(NCC)c4ncccc43)n2)c(OC(F)F)cc1N(C)CCN(C)C land among the classes by reported IC50?
low-valued

* * *

- System tested: L858R/T790M double mutant EGFR in H1975 cells (Homo sapiens, UniProt P00533, L858R/T790M)
- Construct: endogenous in cells
- Sequence (P00533 25-1210 T790M/L858R): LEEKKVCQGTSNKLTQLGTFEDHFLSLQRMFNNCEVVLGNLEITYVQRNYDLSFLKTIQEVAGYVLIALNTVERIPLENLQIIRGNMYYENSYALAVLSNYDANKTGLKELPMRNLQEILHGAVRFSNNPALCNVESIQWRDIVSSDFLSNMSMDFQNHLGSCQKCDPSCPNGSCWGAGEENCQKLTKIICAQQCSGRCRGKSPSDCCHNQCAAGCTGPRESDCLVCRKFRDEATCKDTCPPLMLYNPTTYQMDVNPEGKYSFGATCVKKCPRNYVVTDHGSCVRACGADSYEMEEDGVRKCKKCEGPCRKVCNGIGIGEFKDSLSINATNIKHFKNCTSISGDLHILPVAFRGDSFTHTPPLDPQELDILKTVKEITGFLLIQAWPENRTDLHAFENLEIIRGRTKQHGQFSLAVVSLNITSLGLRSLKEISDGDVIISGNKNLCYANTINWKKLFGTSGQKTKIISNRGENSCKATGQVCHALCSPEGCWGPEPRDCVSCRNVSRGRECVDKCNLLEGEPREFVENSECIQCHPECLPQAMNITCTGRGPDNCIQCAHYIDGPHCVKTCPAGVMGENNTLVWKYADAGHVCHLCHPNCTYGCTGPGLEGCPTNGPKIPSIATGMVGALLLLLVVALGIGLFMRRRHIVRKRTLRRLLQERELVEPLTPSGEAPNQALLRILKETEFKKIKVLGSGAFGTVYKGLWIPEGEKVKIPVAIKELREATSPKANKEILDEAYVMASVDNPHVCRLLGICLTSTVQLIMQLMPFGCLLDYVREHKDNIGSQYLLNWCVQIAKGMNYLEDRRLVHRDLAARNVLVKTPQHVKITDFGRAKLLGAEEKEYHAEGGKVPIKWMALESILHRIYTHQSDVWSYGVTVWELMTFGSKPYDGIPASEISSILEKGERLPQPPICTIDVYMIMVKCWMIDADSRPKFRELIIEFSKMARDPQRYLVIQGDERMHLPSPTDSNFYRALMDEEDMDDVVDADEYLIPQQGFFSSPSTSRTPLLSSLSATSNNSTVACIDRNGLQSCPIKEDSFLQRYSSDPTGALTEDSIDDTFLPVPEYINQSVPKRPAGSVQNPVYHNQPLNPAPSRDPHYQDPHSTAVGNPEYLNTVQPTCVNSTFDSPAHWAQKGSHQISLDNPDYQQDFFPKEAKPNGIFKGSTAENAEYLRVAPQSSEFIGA
- Test summary: L858R/T790M double mutant H1975 autophosphorylation inhibition assay (ELISA)
- Run parameters: cellular EGFR autophosphorylation, H1975, 2 h treatment; read-out: DM (H1975) IC50
Readout label: IC50 (nM)
Numbers only, in nM.

Sample answers from the record:
Quick check: IC50 of C=CC(=O)Nc1cc(Nc2nccc(-n3nc(N(C)C)c4ccsc43)n2)c(OC)cc1N(C)CCN(C)C ?
6.46

Entry under review: C=CC(=O)Nc1cc(Nc2nccc(-n3nc(N(C)C)c4ncccc43)n2)c(OC(F)F)cc1N(C)CCN(C)C . Reported IC50?
5.35

Let us move to another entry and its IC50.
Could you share which IC50 value was measured for C=CC(=O)Nc1cc(Nc2nccc(-n3nc(N(C)C)c4cc(Cl)sc43)n2)c(OC)cc1N(C)CCN(C)C ?
7.52

Origin of values: patent US20200131176A1
